target: Metabotropic glutamate receptor 8 (Rattus norvegicus) (UniProt P70579); test: mGluR8 Gi/Go-coupled signaling modulation – cell-based, rat, thallium flux, HTS, primary screen (AID 488969); details: HEK293 rat mGluR8, GIRK thallium flux, FluoZin2; at 10 µM; stronger effect = higher value; submaximal glutamate (EC20) added with thallium
Sequence (P70579 whole entry, looked up): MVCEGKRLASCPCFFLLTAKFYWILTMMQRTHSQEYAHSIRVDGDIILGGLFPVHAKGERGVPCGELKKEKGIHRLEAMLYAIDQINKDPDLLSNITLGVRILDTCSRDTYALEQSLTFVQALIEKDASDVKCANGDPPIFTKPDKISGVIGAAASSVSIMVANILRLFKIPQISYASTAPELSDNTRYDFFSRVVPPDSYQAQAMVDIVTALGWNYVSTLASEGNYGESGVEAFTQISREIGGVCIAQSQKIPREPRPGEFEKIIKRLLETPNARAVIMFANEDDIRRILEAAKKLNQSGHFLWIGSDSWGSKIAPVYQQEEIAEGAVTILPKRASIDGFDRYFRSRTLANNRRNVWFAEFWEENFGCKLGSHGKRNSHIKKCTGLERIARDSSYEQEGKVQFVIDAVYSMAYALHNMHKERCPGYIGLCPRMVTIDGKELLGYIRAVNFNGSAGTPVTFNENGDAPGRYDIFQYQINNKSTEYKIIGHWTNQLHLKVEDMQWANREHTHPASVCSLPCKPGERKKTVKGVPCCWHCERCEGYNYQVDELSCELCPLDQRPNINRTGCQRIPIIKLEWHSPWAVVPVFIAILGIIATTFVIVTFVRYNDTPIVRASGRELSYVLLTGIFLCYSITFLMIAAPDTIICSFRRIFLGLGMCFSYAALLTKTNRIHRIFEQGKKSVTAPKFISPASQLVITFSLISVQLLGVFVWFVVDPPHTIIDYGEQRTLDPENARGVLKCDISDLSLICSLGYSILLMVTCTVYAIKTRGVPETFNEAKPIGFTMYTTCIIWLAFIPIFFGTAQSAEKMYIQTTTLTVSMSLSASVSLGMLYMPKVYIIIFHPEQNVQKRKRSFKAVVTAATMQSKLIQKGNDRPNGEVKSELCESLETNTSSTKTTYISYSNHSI
In all, about 110,000 compounds were measured (“z-score”: median about -0.1, highest 2% from about 2 on). The full list was thinned out, with the highest values kept by preference. The source made the active and inactive calls.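 The calls were made as follows: active = z-score in the third read window above 3 or below -3; inactive = the rest.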
experimental_endpoint: z-score

Give recorded z-score. `Cn1c(=O)n(C)c2cc(S(=O)(=O)N3CCOCC3)ccc21`
-0.185

Look up and report measured z-score for this entry: `Cc1cc(C)cc(NC(=S)N=Nc2c(O)n(C)c3ccc(S(=O)(=O)N4CCOCC4)cc23)c1`
0.616

For the compound `Cc1ccc(Nc2ccc(S(=O)(=O)N3CCOCC3)cc2[N+](=O)[O-])c(C)c1` , report z-score.
1.29

Give recorded z-score. `Cc1ccc(NC(=S)N=Nc2c(O)n(C)c3ccc(S(=O)(=O)N4CCOCC4)cc23)cc1`
3.93 (active)

Specify measured z-score for `Cc1ccc(C)c(NC(=S)N=Nc2c(O)n(C)c3ccc(S(=O)(=O)N4CCOCC4)cc23)c1` .
4.13 (active)

----------
molecular target: Metabotropic glutamate receptor 8 (Rattus norvegicus); experiment: mGluR8 Gi/Go-coupled signaling modulation – cell-based, rat, thallium flux, HTS, primary screen (AID 488969); details: HEK293 rat mGluR8, GIRK (G protein-gated inwardly rectifying potassium channel) thallium flux, FluoZin2; at 10 µM; stronger effect = higher value; submaximal glutamate (EC20) added with thallium
In all, about 110,000 compounds were measured (“z-score”: median about -0.1, highest 2% from about 2 on). The sample as a whole holds a higher share of the highest values than the screen did.
Definition: the class of an entry is the range in low bracket: < -0.04; middle bracket: ≥ -0.04 and < 0.8; high bracket: ≥ 0.8 that contains its z-score.

Lab note: sort `CC(C)CCNC(=S)Nc1ccc(F)cc1` into the matching z-score band.
high bracket

Record `CNC(=S)NNC(=O)COc1ccccc1C` — which class?
low bracket

Sort into band: COC(=O)C(NNc1ccccc1)(NC(=O)c1cccc(F)c1)C(F)(F)F (stereo not given)
low bracket

Lab log: `Cc1ccc(C)c(NC(=S)NNC(=O)c2sccc2C)c1` — assign z-score category
high bracket

Class for `CCOC(=O)N1CCN(C(=O)c2cc3cc(Br)ccc3oc2=O)CC1` ?
low bracket

Hi there! Could you help me figure out the category for `COc1cc(CNC2CCCCCC2)cc(OC)c1O` please?
middle bracket

Assign a bin to `COCCNC(=S)NNC(=O)c1ccco1`
middle bracket

Lab note: sort `CNC(=S)NNC(=O)c1sccc1C` into the matching z-score band.
middle bracket

Any idea which band `S=c1[nH]nc(-c2ccc3ccccc3n2)o1` is in?
low bracket

Assign a category based on measured z-score for `COc1ccccc1OCC(=O)NNC(=S)NC(=O)c1ccco1` and give only the class name.
middle bracket

Please let me know in which category the item `O=C(c1cc2cc(Br)ccc2oc1=O)N1CCCC1` belongs.
middle bracket

Form: Item = `CCc1cc(C(=O)NNC(=S)Nc2cccc(C)c2)cs1` ; Class = ?
high bracket

Determine which band this compound sits in: `Cc1cccc(NC(=S)NNC(=O)c2sccc2C)c1`
high bracket

Class (by measured z-score) for `Cc1ccccc1OCC(=O)NNC(=S)NC(=O)c1ccco1`
high bracket

Form field 'band' for `CCCCNC(=S)NNC(=O)c1ccco1`
low bracket

Please classify: `Cn1nnnc1SCC(=O)N(C1CCCCC1)C1CCCCC1`
high bracket

Bin? `S=c1[nH]nc(-c2ccc3ccccc3n2)n1-c1ccc2ncccc2c1`
low bracket

Category of CC(c1ccco1)N(C(=O)c1ccccc1NS(=O)(=O)c1cc([N+](=O)[O-])ccc1Cl)c1ccccn1 (stereo not given) :
high bracket

Sort `CCn1nnnc1SCC(=O)N(C1CCCCC1)C1CCCCC1` into one of the categories.
low bracket

Any idea which band `CC(=O)NNC(=O)CC(=O)Nc1nc(C23CC4CC(CC(C4)C2)C3)cs1` is in?
low bracket

Please classify: `CCN(CC)c1ccc(C(=O)O)cc1`
low bracket

In plain terms, what class is `N#C/C(=N\Nc1ccc(Cl)cc1)C(=N)N1CCCCC1` ?
middle bracket

Sort CCC1CCCCN1C(=O)c1cc2cc(Br)ccc2oc1=O (stereo not given) into one of the categories.
high bracket

State the band of `S=c1[nH]nc(-c2ccc3ccccc3n2)n1-c1ccccc1`
middle bracket

Where these numbers come from: PubChem BioAssay AID488969
